# Condition notes: in ethanol, 283.15 K
Measurement type: solubility (mole fraction)
Answer with a number only.

Exercise: Give its solubility (mole fraction) value. Item: CC(=O)N[C@@H](C=O)[C@@H](O)[C@H](O)[C@H](O)CO
Key: 0.000166

----------
# Condition notes: in methanol, 283.15 K
Measurement type: solubility (mole fraction)
Answer with a number only.

Exercise: Give its solubility (mole fraction) value. Item: CC(=O)N[C@@H](C=O)[C@@H](O)[C@H](O)[C@H](O)CO
Key: 0.000634

----------
# Condition notes: in acetone, 303.15 K
Measurement type: solubility (mole fraction)
Answer with a number only.

Exercise: Give its solubility (mole fraction) value. Item: CC(=O)N[C@@H](C=O)[C@@H](O)[C@H](O)[C@H](O)CO
Key: 0.000161

----------
# Condition notes: in n-propanol, 283.15 K
Measurement type: solubility (mole fraction)

Exercise: Give its solubility (mole fraction) value. Item: CC(=O)N[C@@H](C=O)[C@@H](O)[C@H](O)[C@H](O)CO
Key: 7.3e-05

----------
# Condition notes: in water, 308.15 K
Measurement type: solubility (mole fraction)
Answer with a number only.

Exercise: Give its solubility (mole fraction) value. Item: CC(=O)N[C@@H](C=O)[C@@H](O)[C@H](O)[C@H](O)CO
Key: 0.0324

----------
# Condition notes: in methanol, 313.15 K
Measurement type: solubility (mole fraction)
Answer with a number only.

Exercise: Give its solubility (mole fraction) value. Item: CC(=O)N[C@@H](C=O)[C@@H](O)[C@H](O)[C@H](O)CO
Key: 0.00157

----------
# Condition notes: in acetone, 308.15 K
Measurement type: solubility (mole fraction)
Answer with a number only.

Exercise: Give its solubility (mole fraction) value. Item: CC(=O)N[C@@H](C=O)[C@@H](O)[C@H](O)[C@H](O)CO
Key: 0.000193

----------
# Condition notes: in methanol, 298.15 K
Measurement type: solubility (mole fraction)
Answer with a number only.

Exercise: Give its solubility (mole fraction) value. Item: CC(=O)N[C@@H](C=O)[C@@H](O)[C@H](O)[C@H](O)CO
Key: 0.000907

----------
# Condition notes: in n-propanol, 293.15 K
Measurement type: solubility (mole fraction)

Exercise: Give its solubility (mole fraction) value. Item: CC(=O)N[C@@H](C=O)[C@@H](O)[C@H](O)[C@H](O)CO
Key: 0.000115

----------
# Condition notes: in methanol, 303.15 K
Measurement type: solubility (mole fraction)
Answer with a number only.

Exercise: Give its solubility (mole fraction) value. Item: CC(=O)N[C@@H](C=O)[C@@H](O)[C@H](O)[C@H](O)CO
Key: 0.00109

----------
# Condition notes: in water, 303.15 K
Measurement type: solubility (mole fraction)
Answer with a number only.

Exercise: Give its solubility (mole fraction) value. Item: CC(=O)N[C@@H](C=O)[C@@H](O)[C@H](O)[C@H](O)CO
Key: 0.0302

----------
# Condition notes: in acetone, 298.15 K
Measurement type: solubility (mole fraction)
Answer with a number only.

Exercise: Give its solubility (mole fraction) value. Item: CC(=O)N[C@@H](C=O)[C@@H](O)[C@H](O)[C@H](O)CO
Key: 0.000115

----------
# Condition notes: in water, 313.15 K
Measurement type: solubility (mole fraction)
Answer with a number only.

Exercise: Give its solubility (mole fraction) value. Item: CC(=O)N[C@@H](C=O)[C@@H](O)[C@H](O)[C@H](O)CO
Key: 0.0344

----------
# Condition notes: in acetone, 313.15 K
Measurement type: solubility (mole fraction)
Answer with a number only.

Exercise: Give its solubility (mole fraction) value. Item: CC(=O)N[C@@H](C=O)[C@@H](O)[C@H](O)[C@H](O)CO
Key: 0.000241

----------
# Condition notes: in ethanol, 293.15 K
Measurement type: solubility (mole fraction)
Answer with a number only.

Exercise: Give its solubility (mole fraction) value. Item: CC(=O)N[C@@H](C=O)[C@@H](O)[C@H](O)[C@H](O)CO
Key: 0.000242

----------
# Condition notes: in ethanol, 288.15 K
Measurement type: solubility (mole fraction)

Exercise: Give its solubility (mole fraction) value. Item: CC(=O)N[C@@H](C=O)[C@@H](O)[C@H](O)[C@H](O)CO
Key: 0.000223

----------
# Condition notes: in water, 293.15 K
Measurement type: solubility (mole fraction)
Answer with a number only.

Exercise: Give its solubility (mole fraction) value. Item: CC(=O)N[C@@H](C=O)[C@@H](O)[C@H](O)[C@H](O)CO
Key: 0.0257

----------
# Condition notes: in ethanol, 313.15 K
Measurement type: solubility (mole fraction)
Answer with a number only.

Exercise: Give its solubility (mole fraction) value. Item: CC(=O)N[C@@H](C=O)[C@@H](O)[C@H](O)[C@H](O)CO
Key: 0.000382

----------
# Condition notes: in n-propanol, 303.15 K
Measurement type: solubility (mole fraction)

Exercise: Give its solubility (mole fraction) value. Item: CC(=O)N[C@@H](C=O)[C@@H](O)[C@H](O)[C@H](O)CO
Key: 0.000241

----------
# Condition notes: in n-propanol, 298.15 K
Measurement type: solubility (mole fraction)
Answer with a number only.

Exercise: Give its solubility (mole fraction) value. Item: CC(=O)N[C@@H](C=O)[C@@H](O)[C@H](O)[C@H](O)CO
Key: 0.000166

----------
# Condition notes: in n-propanol, 288.15 K
Measurement type: solubility (mole fraction)

Exercise: Give its solubility (mole fraction) value. Item: CC(=O)N[C@@H](C=O)[C@@H](O)[C@H](O)[C@H](O)CO
Key: 8.5e-05

----------
# Condition notes: in ethanol, 303.15 K
Measurement type: solubility (mole fraction)
Answer with a number only.

Exercise: Give its solubility (mole fraction) value. Item: CC(=O)N[C@@H](C=O)[C@@H](O)[C@H](O)[C@H](O)CO
Key: 0.000313
